Molecular target: his-labeled human IL-13 (immunogen A) (human) (UniProt P35225)
Test: cell-based or functional assay
PARAMETER: TARC (pg/mL), A549 cells + IL-13 5 ng/mL + TNFα; antibody at 13.3 nM
One number for each entry, in pg/mL.

-- ask Bench note: what TARC (pg/mL), A549 cells + IL-13 5 ng/mL + TNFα; antibody at 13.3 nM did 35E2C3 (lead antibody, mouse hybridoma) (antibody, V domains shown, Mouse monoclonal antibody purified from hybridoma supernatant on Protein G) VH: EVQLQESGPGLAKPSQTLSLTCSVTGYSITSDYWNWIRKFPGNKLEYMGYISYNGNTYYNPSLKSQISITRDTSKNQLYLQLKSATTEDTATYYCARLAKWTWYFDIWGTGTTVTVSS VL: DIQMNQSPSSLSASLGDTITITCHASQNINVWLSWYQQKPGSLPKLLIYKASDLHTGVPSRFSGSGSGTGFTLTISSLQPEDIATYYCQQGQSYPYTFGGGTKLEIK show?
-- reply 278
